- system: EHMT1 (Homo sapiens)
- Sequence (Q9H9B1 whole entry, species assumed): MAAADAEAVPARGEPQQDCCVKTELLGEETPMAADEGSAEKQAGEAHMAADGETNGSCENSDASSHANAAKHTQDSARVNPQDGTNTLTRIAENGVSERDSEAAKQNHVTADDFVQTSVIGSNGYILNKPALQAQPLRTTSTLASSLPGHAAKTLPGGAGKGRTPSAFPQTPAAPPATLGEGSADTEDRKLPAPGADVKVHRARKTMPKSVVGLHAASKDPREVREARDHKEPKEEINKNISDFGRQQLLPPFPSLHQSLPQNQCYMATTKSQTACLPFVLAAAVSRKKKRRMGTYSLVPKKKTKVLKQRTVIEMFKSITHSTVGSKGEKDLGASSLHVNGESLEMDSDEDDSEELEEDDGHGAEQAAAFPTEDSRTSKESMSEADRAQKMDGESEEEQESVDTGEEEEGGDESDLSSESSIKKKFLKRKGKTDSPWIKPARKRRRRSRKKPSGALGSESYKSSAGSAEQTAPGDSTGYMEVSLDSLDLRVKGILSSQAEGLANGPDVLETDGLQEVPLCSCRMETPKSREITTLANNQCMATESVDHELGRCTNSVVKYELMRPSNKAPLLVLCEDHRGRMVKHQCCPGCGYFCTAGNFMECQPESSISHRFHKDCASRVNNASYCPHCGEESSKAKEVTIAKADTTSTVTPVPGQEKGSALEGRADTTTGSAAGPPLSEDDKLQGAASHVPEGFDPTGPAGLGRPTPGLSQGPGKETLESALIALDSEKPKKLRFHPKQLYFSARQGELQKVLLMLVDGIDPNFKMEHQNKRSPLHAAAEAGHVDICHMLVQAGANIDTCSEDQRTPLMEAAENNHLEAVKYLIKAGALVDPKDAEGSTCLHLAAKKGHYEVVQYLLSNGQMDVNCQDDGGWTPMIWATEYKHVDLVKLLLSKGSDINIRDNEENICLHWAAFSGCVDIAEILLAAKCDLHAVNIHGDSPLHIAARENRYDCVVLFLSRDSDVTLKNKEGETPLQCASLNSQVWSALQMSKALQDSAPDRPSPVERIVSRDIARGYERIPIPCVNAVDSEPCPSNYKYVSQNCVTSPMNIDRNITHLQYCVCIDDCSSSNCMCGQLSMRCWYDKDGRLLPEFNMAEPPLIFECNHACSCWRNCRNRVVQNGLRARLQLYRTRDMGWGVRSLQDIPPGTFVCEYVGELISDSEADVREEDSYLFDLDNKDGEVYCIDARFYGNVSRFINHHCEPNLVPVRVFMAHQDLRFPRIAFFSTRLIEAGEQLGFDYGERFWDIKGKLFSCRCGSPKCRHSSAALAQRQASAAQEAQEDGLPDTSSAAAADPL
- test-details: EHMT1 enzyme assay on peptide substrate (EHMT1 PEP)
- Assay type: biochemical
- particulars: Table II; read-out: EHMT1 PEP (IC50 μM)
# IC50 per record follows

entry_smiles=COc1ccc(Nc2nccc(NCC3(O)CCCCC3)n2)cc1OCCCN1CCCC1 result="0.1 to 1 µM"
entry_smiles=COc1ccc(Nc2nccc(NCC3CCNCC3)n2)cc1OCCCN1CCOCC1 result="0.1 to 1 µM"
entry_smiles=COc1ccc(Nc2nccc(N3CCN(C(C)=O)CC3)n2)cc1OCCCN1CCCC1 result="> 10 µM"
entry_smiles=CNc1ccnc(Nc2ccc(F)c(OCCCN3CCCC3)c2)n1 result="> 10 µM"

Find the recorded IC50 belonging to COc1ccc(Nc2nccc(NCC3CCN(CC(F)F)CC3)n2)cc1OCCCN1CCCC1 and report it.
< 0.1 µM

Find the recorded IC50 belonging to COc1ccc(Nc2nccc(NC3COC3)n2)cc1OCCCN1CCCC1 and report it.
1 to 10 µM

Find the recorded IC50 belonging to COc1ccc(Nc2nccc(NCC3CCN(C(C)=O)CC3)n2)cc1OCCCN1CCCC1=O and report it.
> 10 µM

Find the recorded IC50 belonging to COc1ccc(Nc2nccc(NCCOc3ccccc3)n2)cc1OCCCN1CCCC1 and report it.
0.1 to 1 µM

Find the recorded IC50 belonging to COc1ccc(Nc2nccc(Nc3cccc(F)c3)n2)cc1OCCCN1CCCC1 and report it.
1 to 10 µM

Find the recorded IC50 belonging to CCCCNc1nc(NCC2CCNCC2)cc(C(N)=O)n1 and report it.
> 10 µM

Find the recorded IC50 belonging to COc1ccc(Nc2nccc(-c3c[nH]nc3C)n2)cc1OCCCN1CCCC1 and report it.
> 10 µM

Find the recorded IC50 belonging to CCCCNc1ncc(C(N)=O)c(NCC2CCNCC2)n1 and report it.
> 10 µM

Find the recorded IC50 belonging to COc1ccc(Nc2nccc(NCC3(O)CCOCC3)n2)cc1OCCCN1CCCC1 and report it.
0.1 to 1 µM

Find the recorded IC50 belonging to COc1ccc(Nc2ncc(CO)cn2)cc1OCCCN1CCCC1 and report it.
> 10 µM
